Test system: LOX IMVI
test.method.notes: NCI tumour cell line growth inhibition, 48 h
Activity calls are given as the source filed them. No stated cut-off is given here; in the data, active = GI50 up to about 1.1 µM and inactive = higher.
outcome.measure: GI50

Prompt line: State the recorded GI50 for this entry: "c1cc(-c2cn[nH]c2)cc(-c2cn[nH]c2)c1"
Response line: 36.8 µM (inactive)

Prompt line: Please look up its GI50: "OC[C@H](O)[C@@H](OCc1ccccc1)[C@H](NCc1ccccc1)c1cccs1"
Response line: > 100 µM (inactive)

Prompt line: For the molecule CCCCCCCCCC(=O)OCC1OC(n2cc(F)c(=O)[nH]c2=O)C(NC(=O)OCc2ccccc2)C(OC(=O)CCCCCCCCC)C1O (stereo not given) , what GI50 is on record?
Response line: 16.6 µM (inactive)

Prompt line: Record request: GI50 value, item "N#C/C(c1nc2ccccc2[nH]1)=c1\s/c(=C/c2ccc(Cl)cc2)c(=O)n1-c1ccccc1"
Response line: > 100 µM (inactive)

Prompt line: Any idea what GI50 was measured for "CCOC(=O)c1cc2c3c(c(C(C)=O)c(OC)c2[nH]1)N(C(=O)CC)CC3" ?
Response line: 14.6 µM (inactive)

Prompt line: Given the entry "O=C1Oc2ccccc2C(=O)/C1=C/N1C(=O)/C(=C/c2ccc3c(c2)OCO3)SC1=S" , report its measured GI50.
Response line: 33.3 µM (inactive)

Prompt line: # input molecule: "CN1CCN(c2c(Cl)cc(Cl)c3[nH]c4ccccc4c(=O)c23)CC1" ; wanted: its GI50
Response line: 3.64 µM (inactive)

Prompt line: Can you share its GI50? I mean this molecule: "NNC(=O)Nc1cccnc1"
Response line: > 100 µM (inactive)

Prompt line: Give the measured GI50 of CC(=O)OC1OC2C(NC(=O)OC(C)(C)C)C1CC2(OCc1ccccc1)OCc1ccccc1 (stereo not given) .
Response line: > 10 µM (inactive)

Prompt line: What does the data say about its GI50? Entry: C=CC(OC(C)=O)c1ccc(OC(C)=O)cc1 (stereo not given)
Response line: 2.88 µM (inactive)

----------
System: KM12
test.method.notes: NCI tumour cell line growth inhibition, 48 h
The source made the active and inactive calls. Rule as the data show it: active = GI50 up to about 1.1 µM and inactive = higher. Where a SMILES comes first, the peptide text is derived from it. The star is where a group is joined. Boc = CC(C)(C)OC(=O)*
outcome.measure: GI50

Prompt line: Quick one: GI50 for CC(C)(C)OC(=O)NCC(=O)NCC(=O)NCC(=O)NCC(=O)O (Boc-GGGG-OH) ?
Response line: > 100 µM (inactive)

Prompt line: Recorded GI50 of "N#Cc1c(O)c(/C=N/c2ncccn2)c(=O)n2c1[nH]c1ccccc12" , please.
Response line: > 100 µM (inactive)

Prompt line: Which GI50 is listed for "O=C1Oc2ccccc2C(=O)/C1=C/N1C(=O)/C(=C/c2ccc3c(c2)OCO3)SC1=S" ?
Response line: 16.8 µM (inactive)

Prompt line: Any idea what its GI50 is? The compound is "O=C1/C(=C/c2ccccc2Cl)COc2ccccc21"
Response line: 10.8 µM (inactive)

Prompt line: Requested field: GI50. Item: "NC(=O)N(O)c1cccc(Br)c1"
Response line: > 100 µM (inactive)

Prompt line: May I ask what GI50 has been recorded for COc1ccc(/C=C2\SC(c3ccc(OC)cc3)N(NC(=O)Cc3ccccc3)C2=O)cc1 (stereo not given) ?
Response line: > 100 µM (inactive)

Prompt line: Name the reported GI50 value associated with the compound COC(=O)C(=O)C(C#N)c1ccc(CC#N)cc1 (stereo not given)
Response line: > 100 µM (inactive)

Prompt line: Quick one: GI50 for "N#Cc1c2ccccc2c(Cc2ccc3c(c2)OCCOCCOCCOCCOCCO3)c2ccccc12" ?
Response line: 5.5 µM (inactive)

Prompt line: Query: GI50; subject: "COc1cc(C(=O)NC(CCN)(c2ccccc2)c2ccccc2)cc(OC)c1OC"
Response line: 29.2 µM (inactive)

Prompt line: What does the data say about its GI50? Entry: "OC(NN=C1CCCC1)(C(F)(F)Cl)C(F)(F)Cl"
Response line: > 10 µM (inactive)

Prompt line: Would you mind telling me what GI50 value was observed for COC1=CC(=O)c2c(c(O)c3oc4cc(OC)cc(C)c4c(=O)c3c2O)C1=O [BIKAVERIN] ?
Response line: 3.25 µM (inactive)

Prompt line: Looking for the measured GI50 of "COCN1C(=O)[C@@H]2CCCN2C(=O)c2cc(N)ccc21" , can you help?
Response line: > 100 µM (inactive)

Prompt line: Name the recorded GI50 for "c1ccc2c3c([nH]c2c1)C1(CCCCC1)c1c([nH]c2ccccc12)C31CCCCC1" .
Response line: > 100 µM (inactive)

Prompt line: What measured GI50 goes with "O=C(c1ccccc1Cl)n1oc2ccccc2c1=O" ?
Response line: 84.1 µM (inactive)

Prompt line: Return reported GI50; argument: C[C@H](C1CC2(C)OC2(C)C(=O)O1)[C@H]1CC[C@H]2[C@@H]3[C@@H]4O[C@@H]4[C@@]4(O)CC=CC(=O)[C@]4(C)[C@H]3CC[C@]12C (stereo not given in full)
Response line: > 50 µM (inactive)

Prompt line: Would you kindly share the measured GI50 for "COc1cc2c(cc1OCCOS(C)(=O)=O)N=C[C@@H]1CCCN1C2=O" ?
Response line: 33.9 µM (inactive)

Prompt line: What value of measured GI50 is listed for "Cc1ccsc1C(=S)Nc1ccc(Cl)c(C(=O)OC(C(C)C)C(C)C)c1" ?
Response line: 20 µM (inactive)

Prompt line: Reported GI50, compound "O=C1c2ccccc2C(=O)c2c1oc(=O)c1ccccc21" : ____
Response line: 5.51 µM (inactive)

Prompt line: Data request, read-out GI50, for "CCOC(=O)/C=C(\C(=O)OCC)n1ccc(=O)n(Cc2cn(COCCOC(C)=O)nn2)c1=O"
Response line: 29.6 µM (inactive)

Prompt line: Which measured GI50 value corresponds to CC(=O)OCC1OC(n2cnc(C(N)=S)c2N)C(OC(C)=O)C1OC(C)=O (stereo not given) ?
Response line: > 100 µM (inactive)

----------
Kindly state GI50 for each of the entries shown.
System: EKVX
test.method.notes: NCI tumour cell line growth inhibition, 48 h
Activity calls are given as the source filed them. No stated cut-off is given here; in the data, active = GI50 up to about 1.1 µM and inactive = higher.

Prompt line: Reported GI50, compound "CSc1nc(=O)c2nc(-c3cccs3)c(-c3cccs3)nc2n1C" : ____
Response line: 27.6 µM (inactive)

Prompt line: Could you share which GI50 value was measured for "FC(F)(F)c1nc(-c2ccccc2Cl)[nH]c1C(F)(F)F" ?
Response line: 0.56 µM (active)

Prompt line: Need GI50, item "COc1nc2c(c(=O)n1C)N[C@H]1[C@H](OC(C)=O)[C@@H](OC(C)=O)CO[C@H]1N2"
Response line: > 100 µM (inactive)

----------
Tested on: SK-MEL-2
test.method.notes: NCI tumour cell line growth inhibition, 48 h
The source made the active and inactive calls. No stated cut-off is given here; in the data, active = GI50 up to about 1.1 µM and inactive = higher.
outcome.measure: GI50

Prompt line: Param readout = GI50; param system = SK-MEL-2; param query = COC(CNC(=O)C(C)NC(=O)CCc1ccccc1)OC (stereo not given) ; response: value
Response line: > 100 µM (inactive)

Prompt line: GET /values?readout=GI50&system=SK-MEL-2&item= COc1cc(CC2CCc3nc(N)nc(N)c3C2)cc(OC)c1OC (stereo not given)
Response line: > 38.1 µM (inactive)

Prompt line: Param readout= GI50; system= SK-MEL-2; entry= Nc1ccn(C2CCC(COP(=O)(O)OCC(O)COP(=O)(O)OCC3OC(n4cc(F)c(=O)[nH]c4=O)CC3O)O2)c(=O)n1 (stereo not given) ; returns value.
Response line: 75.3 µM (inactive)

Prompt line: State its GI50 on SK-MEL-2: "COc1cc(C(=O)NC(CCN)(c2ccccc2)c2ccccc2)cc(OC)c1OC"
Response line: 63.2 µM (inactive)

Prompt line: Give recorded GI50 with SK-MEL-2 for the following compound: O=C1NC(c2ccccc2Cl)Nc2ccccc21 (stereo not given)
Response line: 6.7 µM (inactive)

Prompt line: Write down the reported GI50 of COc1ccc(N2NC(c3ccccc3)(c3ccccc3)C(C)C2=O)cc1 (stereo not given) , test system: SK-MEL-2.
Response line: 51.8 µM (inactive)

Prompt line: Param readout = GI50; param system = SK-MEL-2; param query = CC12CCC(C(=O)n3c1nc1ccccc13)C(C)(C)O2 (stereo not given) ; response: value
Response line: > 100 µM (inactive)

Prompt line: Identify the measured GI50 of "O=C1Nc2cc([N+](=O)[O-])ccc2N/C1=C/C(=O)c1ccc(Cl)cc1" for SK-MEL-2.
Response line: 16.9 µM (inactive)

Prompt line: Form field - read-out: GI50; system: SK-MEL-2; submitted item: "COc1nc2c(c(=O)n1C)N[C@H]1[C@H](OC(C)=O)[C@@H](OC(C)=O)CO[C@H]1N2"
Response line: > 100 µM (inactive)

Prompt line: I'm curious: which GI50 was measured for "CCN(CC)CCn1c(=O)c2c(C)c3oc4ccccc4oc3c(C)c2c1=O" tested on SK-MEL-2?
Response line: > 100 µM (inactive)

Prompt line: Item COC12C=CC(CC1)C(C)(C)C2OS(C)(=O)=O (stereo not given) with SK-MEL-2 - GI50?
Response line: > 100 µM (inactive)

Prompt line: What measured GI50 is associated with "c1ccc2c3c([nH]c2c1)C1(CCCCC1)c1c([nH]c2ccccc12)C31CCCCC1" on SK-MEL-2?
Response line: 18.8 µM (inactive)

Prompt line: Query the reported GI50 for SK-MEL-2; item: CCCCCCCCCCCC(=O)OCC1OC(n2cc(F)c(=O)[nH]c2=O)C(N)C(OC(=O)CCCCCCCCCCC)C1O (stereo not given)
Response line: > 100 µM (inactive)

Prompt line: Identify the measured GI50 of CCCC(=O)OCC1OC(n2cc(F)c(=O)[nH]c2=O)CC1OC(=O)CCC (stereo not given) for SK-MEL-2.
Response line: > 10 µM (inactive)

Prompt line: // lookup GI50 | system=SK-MEL-2 | key= "O=C(CC1=Nc2nnc(-c3nnc4n3C(=O)C(CC(=O)c3cccnc3)=N4)n2C1=O)c1cccnc1"
Response line: > 100 µM (inactive)

Prompt line: Give recorded GI50 with SK-MEL-2 for the following compound: "Cc1n[nH]c(=S)n(C)c1=S"
Response line: > 100 µM (inactive)

Prompt line: Item C/C(=N\NC(=O)CC#N)C(CN1CCCCC1)C(c1ccccc1)c1c(O)c2ccccc2oc1=O (stereo not given) with SK-MEL-2 - GI50?
Response line: 35.7 µM (inactive)

Prompt line: What value of GI50 on SK-MEL-2 does "Brc1ccc2[nH]cc(-c3csc(-c4c[nH]c5ccc(Br)cc45)n3)c2c1" have?
Response line: 1.9 µM (inactive)

Prompt line: Notebook entry, SK-MEL-2 assay: GI50 of CC(C)OC(=O)C(NC(=O)C(CC(=O)OCc1ccccc1)NC(=O)OCc1ccccc1)NC(=O)C1C(C)(C)CCC1(C)C (stereo not given) = ?
Response line: 19.5 µM (inactive)

Prompt line: Item: "N#CCCN(CCC#N)c1ccc(/C=N\c2ccc(F)cc2)cc1" Test system: SK-MEL-2 Read-out: GI50 Value: ?
Response line: > 16.1 µM (inactive)

Entry source: ChEMBL document CHEMBL1201862
